# STUDY_TARGET: IKZF1 (Homo sapiens, UniProt Q13422)
# Construct: expressed in transfected cells; host or cells: Flp-In 293
# Sequence (Q13422 83-213 isoform Q13422-7 limits assumed): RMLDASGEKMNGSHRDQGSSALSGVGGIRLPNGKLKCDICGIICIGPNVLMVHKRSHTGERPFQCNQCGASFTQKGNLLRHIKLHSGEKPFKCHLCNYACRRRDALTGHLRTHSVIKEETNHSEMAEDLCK
# Sequence (Q96SW2 whole entry partner): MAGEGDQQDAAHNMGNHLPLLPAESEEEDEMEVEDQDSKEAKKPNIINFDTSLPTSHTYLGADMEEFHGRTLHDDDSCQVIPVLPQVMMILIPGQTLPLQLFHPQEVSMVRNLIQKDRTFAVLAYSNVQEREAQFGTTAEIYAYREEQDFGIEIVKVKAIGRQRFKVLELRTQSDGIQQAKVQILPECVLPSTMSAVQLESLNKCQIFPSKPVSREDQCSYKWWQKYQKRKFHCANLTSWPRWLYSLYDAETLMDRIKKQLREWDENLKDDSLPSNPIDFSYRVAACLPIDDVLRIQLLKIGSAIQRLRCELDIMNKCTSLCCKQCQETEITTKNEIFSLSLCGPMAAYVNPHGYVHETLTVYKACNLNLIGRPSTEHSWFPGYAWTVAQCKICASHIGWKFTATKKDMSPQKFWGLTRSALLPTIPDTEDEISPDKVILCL
# Sequence (Q16531 2-1140 partner limits assumed): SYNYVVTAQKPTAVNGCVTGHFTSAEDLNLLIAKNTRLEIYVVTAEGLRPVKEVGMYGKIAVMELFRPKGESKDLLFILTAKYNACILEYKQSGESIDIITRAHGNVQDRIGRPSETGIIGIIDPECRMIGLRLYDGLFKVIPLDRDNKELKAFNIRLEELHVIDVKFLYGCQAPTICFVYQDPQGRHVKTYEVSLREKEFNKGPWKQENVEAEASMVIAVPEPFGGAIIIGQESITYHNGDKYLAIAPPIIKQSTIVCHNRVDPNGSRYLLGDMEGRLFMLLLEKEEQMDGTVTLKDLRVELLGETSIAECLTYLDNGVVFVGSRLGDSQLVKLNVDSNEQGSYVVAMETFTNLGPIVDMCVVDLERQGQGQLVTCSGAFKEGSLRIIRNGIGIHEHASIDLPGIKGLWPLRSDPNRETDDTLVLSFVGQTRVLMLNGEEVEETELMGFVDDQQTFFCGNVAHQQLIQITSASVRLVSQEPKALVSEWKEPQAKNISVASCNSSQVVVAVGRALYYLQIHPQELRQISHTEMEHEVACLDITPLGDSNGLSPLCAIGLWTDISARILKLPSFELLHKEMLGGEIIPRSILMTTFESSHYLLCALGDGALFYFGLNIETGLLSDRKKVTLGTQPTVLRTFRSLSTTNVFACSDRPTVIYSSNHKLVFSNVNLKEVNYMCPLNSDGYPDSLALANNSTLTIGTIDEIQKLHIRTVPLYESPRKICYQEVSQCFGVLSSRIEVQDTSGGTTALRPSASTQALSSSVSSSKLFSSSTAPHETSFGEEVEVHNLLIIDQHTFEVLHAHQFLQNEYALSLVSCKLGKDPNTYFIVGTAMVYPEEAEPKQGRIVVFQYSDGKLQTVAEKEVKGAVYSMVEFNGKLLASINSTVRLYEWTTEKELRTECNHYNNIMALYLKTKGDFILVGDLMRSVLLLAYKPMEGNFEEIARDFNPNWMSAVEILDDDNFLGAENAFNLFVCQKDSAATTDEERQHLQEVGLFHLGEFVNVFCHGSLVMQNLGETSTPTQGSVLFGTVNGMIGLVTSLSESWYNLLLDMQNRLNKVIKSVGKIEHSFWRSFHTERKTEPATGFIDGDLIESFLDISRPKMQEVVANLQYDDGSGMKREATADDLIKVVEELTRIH
# PROTOCOL_SUMMARY: Cellular degradation assay, eGFP-IKZF1Δ fusion with mCherry reporter in Flp-In 293 cells
# Format: cell-based
# CONDITION_NOTES: compound concentration 2.00E−06; 5 h incubation; n=1
Recorded IKZF1 GFP/RFP Relative Abundance by entry
PARAMETER_MEASURED: IKZF1 GFP/RFP Relative Abundance

MOLECULE: COC(=O)c1n[nH]c(NC2=CC(=O)N(C3CCC(=O)NC3=O)C2=O)n1 (stereo not shown) [Compound 20]
STUDY_TARGET: IKZF1 (Homo sapiens, UniProt Q13422)
QUANTITATIVE_READOUT: 0.895

MOLECULE: Cc1ccc(NC2=CC(=O)N(C3CCC(=O)NC3=O)C2=O)cc1C#N (stereo not shown) [Compound 5]
STUDY_TARGET: IKZF1 (Homo sapiens, UniProt Q13422)
QUANTITATIVE_READOUT: 0.478

MOLECULE: COC(=O)CNC1=CC(=O)N(C2CCC(=O)NC2=O)C1=O (stereo not shown) [Compound 13]
STUDY_TARGET: IKZF1 (Homo sapiens, UniProt Q13422)
QUANTITATIVE_READOUT: 1.076

MOLECULE: O=C1CCC(N2C(=O)C=C(Nc3cccc(NC(=O)Nc4ccc(Cl)c(Cl)c4)c3)C2=O)C(=O)N1 (stereo not shown) [Compound 56]
STUDY_TARGET: IKZF1 (Homo sapiens, UniProt Q13422)
QUANTITATIVE_READOUT: 0.319

MOLECULE: Cc1ccc(NC(=O)N[C@H](C)c2cccc(NC3=CC(=O)N(C4CCC(=O)NC4=O)C3=O)c2)cc1Cl (stereo partly shown) [Compound 70]
STUDY_TARGET: IKZF1 (Homo sapiens, UniProt Q13422)
QUANTITATIVE_READOUT: 0.080

MOLECULE: Cc1ccc(NC(=O)OCCc2cccc(NC3=CC(=O)N(C4CCC(=O)NC4=O)C3=O)c2)cc1Cl (stereo not shown) [Compound 110]
STUDY_TARGET: IKZF1 (Homo sapiens, UniProt Q13422)
QUANTITATIVE_READOUT: 0.066

MOLECULE: O=C1CCC(N2C(=O)C=C(Nc3nc[nH]n3)C2=O)C(=O)N1 (stereo not shown) [Compound 18]
STUDY_TARGET: IKZF1 (Homo sapiens, UniProt Q13422)
QUANTITATIVE_READOUT: 0.833

MOLECULE: Cc1ccc(NC(=O)Oc2cccc(NC3=CC(=O)N(C4CCC(=O)NC4=O)C3=O)c2)cc1Cl (stereo not shown) [Compound 51]
STUDY_TARGET: IKZF1 (Homo sapiens, UniProt Q13422)
QUANTITATIVE_READOUT: 1.001

MOLECULE: Cc1ccc(NC(=O)NCc2cccc(OC3=CC(=O)N(C4CCC(=O)NC4=O)C3=O)c2)cc1Cl (stereo not shown) [Compound 64]
STUDY_TARGET: IKZF1 (Homo sapiens, UniProt Q13422)
QUANTITATIVE_READOUT: 1.077

MOLECULE: Cc1ccc(NC(=O)NC(CC(=O)N(C)C)c2cccc(NC3=CC(=O)N(C4CCC(=O)NC4=O)C3=O)c2)cc1Cl (stereo not shown) [Compound 76]
STUDY_TARGET: IKZF1 (Homo sapiens, UniProt Q13422)
QUANTITATIVE_READOUT: 0.069

MOLECULE: Cc1ccc(NC(=O)CCc2cccc(NC3=CC(=O)N(C4CCC(=O)NC4=O)C3=O)c2)cc1Cl (stereo not shown) [Compound 53]
STUDY_TARGET: IKZF1 (Homo sapiens, UniProt Q13422)
QUANTITATIVE_READOUT: 0.077

MOLECULE: O=C(Cc1ccc(Cl)c(Cl)c1)NCc1cccc(NC2=CC(=O)N(C3CCC(=O)NC3=O)C2=O)c1 (stereo not shown) [Compound 61]
STUDY_TARGET: IKZF1 (Homo sapiens, UniProt Q13422)
QUANTITATIVE_READOUT: 0.104

MOLECULE: O=C1CCC(N2C(=O)C=C(Nc3cccc(CNC(=O)NCc4ccccc4)c3)C2=O)C(=O)N1 (stereo not shown) [Compound 81]
STUDY_TARGET: IKZF1 (Homo sapiens, UniProt Q13422)
QUANTITATIVE_READOUT: 0.056

MOLECULE: Cc1ccc(NC(=O)OCc2cccc(NC3=CC(=O)N(C4CCC(=O)NC4=O)C3=O)c2)cc1Cl (stereo not shown) [Compound 48]
STUDY_TARGET: IKZF1 (Homo sapiens, UniProt Q13422)
QUANTITATIVE_READOUT: 0.903

MOLECULE: Cc1cc(NC2=CC(=O)N(C3CCC(=O)NC3=O)C2=O)ccc1Cl (stereo not shown) [Compound 4]
STUDY_TARGET: IKZF1 (Homo sapiens, UniProt Q13422)
QUANTITATIVE_READOUT: 0.433

MOLECULE: O=C1CCC(N2C(=O)C=C(Nc3cccc(-c4cc[nH]n4)c3)C2=O)C(=O)N1 (stereo not shown) [Compound 31]
STUDY_TARGET: IKZF1 (Homo sapiens, UniProt Q13422)
QUANTITATIVE_READOUT: 0.290

Ref: patent US12227488B2
